// provenance: patent US20250206841A1

Target: T1, cynomolgus Trop-2-His protein (cynomolgus, UniProt P09758 27-274 (human entry))
T1 construct: also called cynmolgus Trop-His; Kactus Cat #TRP-CM121; not shown: His tag
T1 chain: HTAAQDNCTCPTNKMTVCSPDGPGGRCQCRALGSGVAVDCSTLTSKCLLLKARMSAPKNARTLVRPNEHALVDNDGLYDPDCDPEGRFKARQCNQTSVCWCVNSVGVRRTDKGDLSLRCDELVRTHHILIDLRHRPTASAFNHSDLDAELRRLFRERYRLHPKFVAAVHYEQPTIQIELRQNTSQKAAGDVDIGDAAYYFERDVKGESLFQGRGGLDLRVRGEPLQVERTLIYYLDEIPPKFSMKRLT
Assay: BLI (Gator Prime), LEM supernatant Ab on HFC probe
Outcome measure: kon (M⁻¹ s⁻¹)
One number for each entry, in M⁻¹ s⁻¹.

9F7 (antibody, V domains shown, Rabbit-derived clone; LEM construct: VH + rabbit IgG CH1 + human IgG1 CH2-CH3) VH: QEQLKESGGGLVQPGGSLTLSCKASGFDFNNYGVSWVRQAPGKGLEWIGYIYPAYHNTYYATWVNGRFTISSHNAQNTLYLQLNTLTAADTATYFCARDTGSTDYNFNLWGPGTLVTVSS VL: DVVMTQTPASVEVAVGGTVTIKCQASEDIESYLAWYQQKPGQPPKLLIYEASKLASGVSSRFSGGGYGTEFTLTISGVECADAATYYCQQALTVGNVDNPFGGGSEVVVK : 774000
10F12 (antibody, V domains shown, Rabbit-derived clone; LEM construct: VH + rabbit IgG CH1 + human IgG1 CH2-CH3) VH: QSLEESGGDLVQPGASLTLTCRASGFDLNNYSMLWVRQAPGKGLEWIGCIYISGGTTYFASWATGRFAISKTSSTTVTLQMTSLTAADTATYFCARDDGSTSYYLNLWGPGTLVTVSS VL: YDMTQTPASVSAAVGGTVTIKCQASEDIYSLLAWYQQKPGQPPKLLIFDASDLASGVPSRFKGSGSGTEYTLTISDLECDDAATYYCQQAYTIGNIDNAFGGGTEVVVK : 426000
66A1 (antibody, V domains shown, Rabbit-derived clone; LEM construct: VH + rabbit IgG CH1 + human IgG1 CH2-CH3) VH: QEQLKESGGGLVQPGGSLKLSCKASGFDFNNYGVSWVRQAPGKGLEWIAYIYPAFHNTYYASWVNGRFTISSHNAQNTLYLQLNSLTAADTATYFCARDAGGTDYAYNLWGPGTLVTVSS VL: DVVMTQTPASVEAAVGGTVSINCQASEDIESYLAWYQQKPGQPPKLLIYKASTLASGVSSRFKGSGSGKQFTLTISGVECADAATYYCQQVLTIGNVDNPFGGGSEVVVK : 869000
73C2 (antibody, V domains shown, Rabbit-derived clone; LEM construct: VH + rabbit IgG CH1 + human IgG1 CH2-CH3) VH: QSLEESGGGLVKPGGTLTLTCTVSGFDFSNYAVTWVRQAPGEGLEYIGFVGIYGDFYYANWAKGRFTISKTSSTTVTLQMPSLTVADTATYFCARGGLWTGNSYFDLWGPGTLVTVSS VL: YDMTQTPASVEVAVGGTVTINCQASESINRYLAWYQQKRGQPPKPLIYRAATLASGVPSRFKGSGSGTEYTLTISDLECADAATYYCQQGYGYSTVGNAFGGGTEVVVK : 364000

Hi there! I need kon for each item below, if you can.
1. 12G6 (antibody, V domains shown, Rabbit-derived clone; LEM construct: VH + rabbit IgG CH1 + human IgG1 CH2-CH3) VH: QEQLKESGGGLVQPGGSLTLSCKASGFDFNNYGVSWVRQAPGKGLEWIGYIYPAYHNTYYATWVNGRFTISSHNAQNTLYLQLNTLTAADTATYFCARDAGNTDYNFNLWGPGTLVTVSS VL: DVVMTQTPASVEVAVGGTVTIKCQASEDIESYLAWYQQKPGQPPKLLIYEASKLASGVSSRFSGGGYGTEFTLTISGVECADAATYYCQQALTIGNVDNPFGGGSEVVVK
2. 8H2 (antibody, V domains shown, Rabbit-derived clone; LEM construct: VH + rabbit IgG CH1 + human IgG1 CH2-CH3) VH: QSLEESGGDLVQPGASLTLTCKASGFDLNNYAMLWVRQAPGKGLEWIGCIYISGGTTYFASWATGRFAISKTSSTTVTLQMTSLTAADTATYFCARDDGSTSYYLNLWGPGTLVTVSS VL: YDMTQTPASVSAAVGGTVTIKCQASEDIYSLLAWYQQKPGQPPKLLIYDASDLASGVPSRFKGSGSGTEYTLTISALECDDAATYYCQQAYTIGNIDNTFGGGTEVVVK
3. 62A10 (antibody, V domains shown, Rabbit-derived clone; LEM construct: VH + rabbit IgG CH1 + human IgG1 CH2-CH3) VH: QSLVESGGGLVQPEGSLTLTCKASGFDFNNYAVTWVRQAPGEGLEYIGFIGIRGHIYYANWAKGRFTISKTSSTTMTLQMTSLTVADTATYFCARGGLWTGNSYFDLWGPGTLVTVSS VL: YDMTQTPASVEVAVGGTVTINCQASESISRYLAWYQQKPGQSPKPLIYRASTLASGVPSRFQGSGSGTEYTLTISDLECADAATYYCQQGYGYSTVDNAFGGGTEVVVK
4. 74F11/15F5 (antibody, human IgG1, V domains shown, LEM construct: VH + rabbit IgG CH1 + human IgG1 CH2-CH3) VH: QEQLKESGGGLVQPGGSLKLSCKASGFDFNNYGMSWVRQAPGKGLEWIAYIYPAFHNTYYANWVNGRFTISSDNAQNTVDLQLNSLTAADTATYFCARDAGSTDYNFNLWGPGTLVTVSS VL: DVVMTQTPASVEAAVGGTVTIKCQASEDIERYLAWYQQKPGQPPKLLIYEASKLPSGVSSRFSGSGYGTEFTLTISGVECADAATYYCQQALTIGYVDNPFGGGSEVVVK
5. 5D4 (antibody, V domains shown, Rabbit-derived clone; LEM construct: VH + rabbit IgG CH1 + human IgG1 CH2-CH3) VH: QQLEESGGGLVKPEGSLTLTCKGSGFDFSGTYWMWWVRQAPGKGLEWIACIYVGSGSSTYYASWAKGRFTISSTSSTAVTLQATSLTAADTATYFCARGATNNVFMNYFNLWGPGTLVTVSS VL: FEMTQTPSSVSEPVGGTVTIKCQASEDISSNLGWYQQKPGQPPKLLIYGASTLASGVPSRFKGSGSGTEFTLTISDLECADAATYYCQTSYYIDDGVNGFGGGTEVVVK

[603000, 677000, 726000, 758000, 577000]

For 65D5 (antibody, V domains shown, Rabbit-derived clone; LEM construct: VH + rabbit IgG CH1 + human IgG1 CH2-CH3) VH: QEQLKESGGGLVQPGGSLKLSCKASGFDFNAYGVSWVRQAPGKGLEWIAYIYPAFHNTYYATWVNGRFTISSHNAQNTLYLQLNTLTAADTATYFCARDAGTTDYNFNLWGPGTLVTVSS VL: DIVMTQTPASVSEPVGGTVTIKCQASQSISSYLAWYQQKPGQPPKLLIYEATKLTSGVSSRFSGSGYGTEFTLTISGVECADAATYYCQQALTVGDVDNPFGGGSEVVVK , what is its reported kon?
972000
